Tested on: PKN2;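 note: KINOMEscan kinase panel screen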
Conditions: concentration: 1 μM, replicates: in singlicate; n = 1
VALUE TYPE: %Inh (%)
Write the value in % as a bare number.

Known %Inh results, listed for orientation:
[[record]]
compound = "O=c1cc(N2CCOCC2)nc2n(Cc3cccc(Cl)c3Cl)ccn12 [GSK2286295]"
target_or_system = "PKN2"
value_unit = "%"
recorded_value = 0

[[record]]
compound = "CC1=C(C(=O)Nc2cc3cn[nH]c3cc2F)C(c2ccc(C(F)(F)F)cc2)CC(=O)N1 (stereo not shown) [GSK429286]"
target_or_system = "PKN2"
value_unit = "%"
recorded_value = 0

[[record]]
compound = "O=C(O)COc1ncnc2cc(-c3ccc4[nH]ncc4c3)sc12"
target_or_system = "PKN2"
value_unit = "%"
recorded_value = 19

[[record]]
compound = "COc1ccc(CNC(=O)NC2CCN(c3ccnc(Nc4cc(OC)c(OC)c(OC)c4)n3)C2)cc1 (stereo not shown) [GSK1379748]"
target_or_system = "PKN2"
value_unit = "%"
recorded_value = 0

[[record]]
compound = "Cc1ccc(-c2cc(-c3c[nH]nc3-c3ccccn3)ccn2)cc1 [GW684088]"
target_or_system = "PKN2"
value_unit = "%"
recorded_value = 0


Enquiry: // fetch PKN2 %Inh for CN1C(=O)C(Nc2ccc(Cl)c(C(=O)O)c2)=C(c2ccc(Cl)cc2)C1=O [SB-404290]
Return: 31

Enquiry: // query: CCn1c(-c2cccnc2O)nc2cnccc21 [SB-736715]
Return: 0

Enquiry: // query: Cc1cc(NCC(c2ccccc2)c2ccccc2)nc(NCc2ccc(C(F)(F)F)cc2)n1 [GW497681]
Return: 0

Enquiry: // query: Cl.NC(=O)c1cccc(Nc2nccc(Nc3ccc(Oc4cccc(Cl)c4)c(Cl)c3)n2)c1 [GW659008]
Return: 0

Enquiry: // query: Cc1cccc(-c2nc(Nc3ccc4[nH]ncc4c3)c3ccccc3n2)n1 [GW857175]
Return: 0

Enquiry: // query: COc1cc(Nc2nccc(N3CCC(NC(=O)Nc4cc(C)ccc4C)C3)n2)cc(OC)c1OC (stereo not shown) [GSK1379762]
Return: 0

Enquiry: // query: COc1cccc(NC(=O)NC2CCN(c3ccnc(Nc4ccc(F)cc4)n3)C2)c1 (stereo not shown) [GSK1379721]
Return: 0

Enquiry: // query: Cc1c(O)cccc1Nc1ccnc2ccc(C(F)(F)F)cc12.Cl [GW466413]
Return: 0

Enquiry: // query: Cn1cncc1-c1ccc2ncnc(Nc3ccc(OCc4ccccc4)cc3)c2c1 [GW320571]
Return: 0

Enquiry: // query: COc1cc2nccc(Nc3ccc(NC(=O)c4ccc(C)cc4)c(O)c3)c2cc1OC.Cl [GW440132]
Return: 0

Enquiry: // query: `NC(=O)c1nnc2ccccc2c1N`
Return: 38

Enquiry: // query: Cc1cccc(-c2nc(Nc3cccc(C(N)=O)c3)c3ccccc3n2)n1 [GW876019]
Return: 0

Enquiry: // query: Cc1cc(N2Cc3ccccc3C2)nc(Nc2ccc(S(=O)(=O)N3CCOCC3)cc2)n1.Cl [GSK1669917]
Return: 0

Enquiry: // query: O=C(Nc1ccc2c(c1)OCO2)NC1CCN(c2ccnc(Nc3ccc(F)cc3)n2)C1 (stereo not shown) [GSK1379724]
Return: 0

Enquiry: // query: Cc1cccc(-c2cc(Nc3ccncc3)c3ccccc3n2)n1 [GSK223675]
Return: 0

Enquiry: // query: `Cn1ccc2ncnc(Oc3ccc(Nc4nc5ccccc5[nH]4)cc3)c21`
Return: 0

Enquiry: // query: COc1ccccc1CNC(=O)c1cc(C(=O)c2ccccc2C)c[nH]1 [GSK364507]
Return: 0

Enquiry: // query: O=C(Nc1n[nH]c2nc(-c3nccs3)c(Br)cc12)C1CCCC1 [SB-742609]
Return: 0

Enquiry: // query: Cc1ccc(NC(=O)Nc2cc(C(C)(C)C)nn2-c2ccccc2)cc1 [GSK1014915]
Return: 0

Enquiry: // query: `Fc1cccc(COc2nnc(-c3ccc4c(c3)CCO4)o2)c1`
Return: 0

Enquiry: // query: CCCc1ccc(S(=O)(=O)NC2CCN(c3ccnc(Nc4ccc(F)cc4)n3)C2)cc1 (stereo not shown) [GSK1379715]
Return: 0

Enquiry: // query: `Cn1ccc2ncnc(Oc3ccc(NC(=O)Nc4ccccc4)cc3)c21`
Return: 0

Enquiry: // query: COc1ccc(Nc2nccc(-c3cccc(NC(=O)c4cc5cc(F)ccc5[nH]4)c3)n2)cc1 [GSK1229782]
Return: 0

Enquiry: // query: Cc1ccccc1-n1cnc2c(N)ncnc21 [SKF-97510]
Return: 0
